biological target: HLA-A*0201 (Homo sapiens, UniProt P04439, D140Y/D185E/D98H/E176V/E277Q/G131W/G231S/I119V/I121R/I166T/I218V/L300P/L318F/N151K/N90K/P208A/P217A/Q86G/Q94H/R138H/R169H/T345S); test: Peptide binding using T2 cells (SSX-2 41-49 analogs); details: half maximal binding of wild-type peptide relative to analog; native = 1.0
Ends that are not written are not given here.
With a cut-off of 3, any Relative affinity (1/RA) strictly below it is called label 1; any Relative affinity (1/RA) meeting it or above is called label 0.

Q. Criterion: Relative affinity (1/RA) strictly below 3. Is it met by FVSEKIFYM [SSX2 41-49 (K41F, A42V, V49M)] ?
A. label 1

Q. Same question, FVSEKLFYV [SSX2 41-49 (K41F, A42V, I46L)] this time
A. label 1

---
Q. Criterion: Relative affinity (1/RA) strictly below 3. Is it met by KASEKIFYI [SSX2 41-49 (V49I)] ?
A. label 1

Q. Same question, WMSEKIFYV [SSX2 41-49 (K41W, A42M)] this time
A. label 1

Q. Same question, FVSEKIFSV [SSX2 41-49 (K41F, A42V, Y48S)] this time
A. label 0

Q. Same question, KISEKIFYV [SSX2 41-49 (A42I)] this time
A. label 1

Q. Same question, FISEKIFYV [SSX2 41-49 (K41F, A42I)] this time
A. label 1

Q. Same question, FASEKIFYV [SSX2 41-49 (K41F)] this time
A. label 1

Q. Same question, WLSEKIFYV [SSX2 41-49 (K41W, A42L)] this time
A. label 0

Q. Same question, FVSEKIFTV [SSX2 41-49 (K41F, A42V, Y48T)] this time
A. label 0

Q. Same question, FVSDKIFYV [SSX2 41-49 (K41F, A42V, E44D)] this time
A. label 1

Q. Same question, YASEKIFYV [SSX2 41-49 (K41Y)] this time
A. label 1

Q. Same question, YMSEKIFYV [SSX2 41-49 (K41Y, A42M)] this time
A. label 1

Q. Same question, FVSEKLFSA this time
A. label 1

Q. Same question, FVSQKIFYV [SSX2 41-49 (K41F, A42V, E44Q)] this time
A. label 1

Q. Same question, YLSEKIFYV [SSX2 41-49 (K41Y, A42L)] this time
A. label 1

Q. Same question, FVSEKIFYV [SSX2 41-49 (K41F, A42V)] this time
A. label 0

Q. Same question, KMSEKIFYV [SSX2 41-49 (A42M)] this time
A. label 1

Q. Same question, FVSEKLFTV [SSX2 41-49 (K41F, A42V, I46L, Y48T)] this time
A. label 1

Q. Same question, KLSEKIFYI [SSX2 41-49 (A42L, V49I)] this time
A. label 1

---

molecular target: HLA-A*0201 (Homo sapiens, UniProt P04439, D140Y/D185E/D98H/E176V/E277Q/G131W/G231S/I119V/I121R/I166T/I218V/L300P/L318F/N151K/N90K/P208A/P217A/Q86G/Q94H/R138H/R169H/T345S); assay: Peptide binding using T2 cells (SSX-2 41-49 analogs); conditions: half maximal binding of wild-type peptide relative to analog; native = 1.0
Square brackets hold non-standard residues; d marks the D form. Peptide text beside a SMILES is read from it. Phe(4-NO2) = N[C@@H](Cc1ccc([N+](=O)[O-])cc1)C(=O)O; Bta = N[C@@H](Cc1csc2ccccc12)C(=O)O; Phg = N[C@H](C(=O)O)c1ccccc1; Nle = CCCC[C@H](N)C(=O)O; Nva = CCC[C@H](N)C(=O)O
Measured Relative affinity (1/RA) values are reported for all entries that follow.
Reply briefly: the number, and no unit.

Take a look at these entries with their results.
Q. Which Relative affinity (1/RA) is reported for this compound? CC[C@H](C)[C@H](NC(=O)[C@H](Cc1ccc(O)cc1)NC(=O)[C@H](Cc1ccccc1)NC(=O)[C@@H](NC(=O)[C@H](CCCCN)NC(=O)[C@H](CCC(=O)O)NC(=O)[C@H](CO)NC(=O)[C@@H](NC(=O)[C@@H](N)Cc1ccccc1)C(C)C)[C@@H](C)CC)C(=O)O [SSX2 41-49 (K41F, A42V, V49I)]
A. 1.6

Q. Same question, CC[C@H](C)[C@H](NC(=O)[C@H](CCCCN)NC(=O)[C@H](CCC(=O)O)NC(=O)[C@H](CO)NC(=O)[C@H](C)NC(=O)[C@@H](N)c1ccccc1)C(=O)N[C@@H](Cc1ccccc1)C(=O)N[C@@H](Cc1ccc(O)cc1)C(=O)N[C@H](C(=O)O)C(C)C [SSX2 41-49 (K41(Phg))] (H-[Phg]ASEKIFYV-OH) this time
A. 2.5

Q. Same question, CC[C@H](C)[C@H](NC(=O)[C@H](CCCCN)NC(=O)[C@H](CCC(=O)O)NC(=O)[C@H](CO)NC(=O)[C@H](C)NC(=O)[C@@H](N)Cc1csc2ccccc12)C(=O)N[C@@H](Cc1ccccc1)C(=O)N[C@@H](Cc1ccc(O)cc1)C(=O)N[C@H](C(=O)O)C(C)C [SSX2 41-49 (K41(b-(3-benzothienyl)Ala))] (H-[Bta]ASEKIFYV-OH) this time
A. 0.6

Q. Same question, CC[C@H](C)[C@H](NC(=O)[C@H](CCCCN)NC(=O)[C@H](CCC(=O)O)NC(=O)[C@H](CO)NC(=O)[C@H](C)NC(=O)[C@@H](N)Cc1ccc([N+](=O)[O-])cc1)C(=O)N[C@@H](Cc1ccccc1)C(=O)N[C@@H](Cc1ccc(O)cc1)C(=O)N[C@H](C(=O)O)C(C)C [SSX2 41-49 (K41(Phe-4N02))] (H-[Phe(4-NO2)]ASEKIFYV-OH) this time
A. 1.1

Q. Same question, CCC[C@H](NC(=O)[C@H](CO)NC(=O)[C@@H](NC(=O)[C@@H](N)Cc1ccccc1)C(C)C)C(=O)N[C@@H](CCCCN)C(=O)N[C@H](C(=O)N[C@@H](Cc1ccccc1)C(=O)N[C@@H](Cc1ccc(O)cc1)C(=O)N[C@H](C(=O)O)C(C)C)[C@@H](C)CC [SSX2 41-49 (K41F, A42V, E44Nva), FVS(Nva)KIFYV] (H-FVS[Nva]KIFYV-OH) this time
A. 3.9

---
Q. Which Relative affinity (1/RA) is reported for this compound? CCC[C@H](NC(=O)[C@H](CCCCN)NC(=O)[C@H](CCC(=O)O)NC(=O)[C@H](CO)NC(=O)[C@@H](NC(=O)[C@@H](N)Cc1ccccc1)C(C)C)C(=O)N[C@@H](Cc1ccccc1)C(=O)N[C@@H](Cc1ccc(O)cc1)C(=O)N[C@H](C(=O)O)C(C)C [SSX2 41-49 (K41F, A42V, I46Nva), FVSEK(Nva)FYV] (H-FVSEK[Nva]FYV-OH)
A. 2.4

Q. Same question, CC[C@H](C)[C@H](NC(=O)[C@H](CCCCN)NC(=O)[C@H](CCC(=O)O)NC(=O)[C@H](CO)NC(=O)[C@@H](NC(=O)[C@@H](N)Cc1ccccc1)C(C)C)C(=O)N[C@@H](Cc1ccccc1)C(=O)N[C@@H](Cc1ccccc1)C(=O)N[C@H](C(=O)O)C(C)C [SSX2 41-49 (K41F, A42V, Y48F)] this time
A. 1.7

Q. Same question, CC[C@H](C)[C@H](NC(=O)[C@H](CCCCN)NC(=O)[C@H](CCC(=O)O)NC(=O)[C@H](CO)NC(=O)[C@@H](NC(=O)[C@@H](N)Cc1ccccc1)C(C)C)C(=O)N[C@@H](Cc1ccccc1)C(=O)N[C@H](C(=O)N[C@H](C(=O)O)C(C)C)c1ccccc1 [SSX2 41-49 (K41F, A42V, Y48Phg), FVSEKIF(Phg)V] (H-FVSEKIF[Phg]V-OH) this time
A. 2.5

Q. Same question, CC[C@H](C)[C@H](NC(=O)[C@H](CCCCN)NC(=O)[C@H](CCC(=O)O)NC(=O)[C@H](CO)NC(=O)[C@H](C)NC(=O)[C@@H](N)Cc1ccc(OC)cc1)C(=O)N[C@@H](Cc1ccccc1)C(=O)N[C@@H](Cc1ccc(O)cc1)C(=O)N[C@H](C(=O)O)C(C)C [SSX2 41-49 (K41(O-methyl Tyr))] (H-Y(Me)ASEKIFYV-OH) this time
A. 0.8

Q. Same question, CC[C@H](C)[C@H](NC(=O)[C@H](CCCCN)NC(=O)[C@H](CCC(=O)O)NC(=O)[C@H](CO)NC(=O)[C@@H](NC(=O)[C@@H](N)Cc1ccc(O)cc1)C(C)C)C(=O)N[C@@H](Cc1ccccc1)C(=O)N[C@@H](Cc1ccc(O)cc1)C(=O)N[C@H](C(=O)O)C(C)C [SSX2 41-49 (K41Y, A42V)] this time
A. 1.0

Q. Same question, CCCC[C@H](NC(=O)[C@H](CO)NC(=O)[C@@H](NC(=O)[C@@H](N)Cc1ccccc1)C(C)C)C(=O)N[C@@H](CCCCN)C(=O)N[C@H](C(=O)N[C@@H](Cc1ccccc1)C(=O)N[C@@H](Cc1ccc(O)cc1)C(=O)N[C@H](C(=O)O)C(C)C)[C@@H](C)CC [SSX2 41-49 (K41F, A42V, E44Nle), FVS(Nle)KIFYV] (H-FVS[Nle]KIFYV-OH) this time
A. 1.1

Q. Same question, CCCC[C@H](NC(=O)[C@H](CCCCN)NC(=O)[C@H](CCC(=O)O)NC(=O)[C@H](CO)NC(=O)[C@@H](NC(=O)[C@@H](N)Cc1ccccc1)C(C)C)C(=O)N[C@@H](Cc1ccccc1)C(=O)N[C@@H](Cc1ccc(O)cc1)C(=O)N[C@H](C(=O)O)C(C)C [SSX2 41-49 (K41F, A42V, I46Nle), FVSEK(Nle)FYV] (H-FVSEK[Nle]FYV-OH) this time
A. 1.1
